# measured-on: T1, Full length human CD40 (huCD40) on cells (human, UniProt P25942 21-277)
# T1 construct: CD40 on human mature DCs, human B cells, Raji cells and HEK-Blue CD40L cells (stably expressing human CD40); also called TNFRSF5
# test-description: flow cytometry, Raji cells
measurement-kind: EC50 (µg/mL)
One number for each entry, in µg/mL.

Sample answers from the record:
>  <binder>
C40M18 (antibody, human IgG1, lambda, V domains shown, Full-length IgG1/lambda; from OmniRat (OMT); VH C40H48, VL C40L64) VH: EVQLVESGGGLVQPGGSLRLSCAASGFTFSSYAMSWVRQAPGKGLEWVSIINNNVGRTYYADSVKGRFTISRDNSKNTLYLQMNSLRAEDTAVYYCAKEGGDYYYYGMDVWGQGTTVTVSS VL: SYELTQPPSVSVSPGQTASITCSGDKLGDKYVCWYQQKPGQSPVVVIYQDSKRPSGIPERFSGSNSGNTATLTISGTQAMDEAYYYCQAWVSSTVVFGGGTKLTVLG

>  <unit-label>
µg/mL

>  <reported>
0.073

$$$$
>  <binder>
C40M67 (antibody, human IgG1, kappa, V domains shown, Full-length IgG1/kappa; from phage display) VH: EVQLLESGGGLVQPGGSLRLSCAASGFTFSDYAMNWVRQAPGKGLEWVSGIKSGGSSKYYADSVKGRFTISRDNSKNTLYLQMNSLRAEDTAVYYCAKHVDFYRALDYWGQGTLVTVSS VL: EIVLTQSPGTLSLSPGERATLSCRASQSVKNSSLAWYQQKPGQAPRLLIYTASSRATGIPDRFSGSGSGTDFTLTISRLEPEDFAVYYCQQSSAPPWTFGQGTKVEIKR

>  <unit-label>
µg/mL

>  <reported>
0.247

$$$$
>  <binder>
C40M12 (antibody, human IgG1, lambda, V domains shown, Full-length IgG1/lambda; from OmniRat (OMT)) VH: EVQLVESGGGLVQPGGSLRLSCAASGFTFGSYAMSWVRQAPGKGLEWVSVISDSGGRTYYADSVKGRFTISRDYSKNTLYLQMNSLRAEDTAVYYCAKEGGDYYYYGMDVWGQGTTVTVSS VL: SYELTQPPSVSVSPGQTASIICSGDKLGDKYVCWYQQKPGQSPVVVIYHDNKRPSGIPERFSGSNSGNTATLTISGTQAMDEADYYCQVWDSSTVVFGGGTKLTVLG

>  <unit-label>
µg/mL

>  <reported>
0.0299

$$$$

For the next question, use this binder.
# EC50 lookup, item C40M9 (antibody, human IgG1, lambda, V domains shown) VH: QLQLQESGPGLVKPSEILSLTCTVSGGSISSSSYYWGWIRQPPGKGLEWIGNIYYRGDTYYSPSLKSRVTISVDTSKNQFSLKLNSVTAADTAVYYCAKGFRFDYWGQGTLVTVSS VL: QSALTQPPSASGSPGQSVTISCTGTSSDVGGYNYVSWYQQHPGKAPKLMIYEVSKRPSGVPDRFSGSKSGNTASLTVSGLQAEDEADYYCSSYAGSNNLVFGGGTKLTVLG 0.0571
